System tested: 5-HT1A receptor (Homo sapiens, UniProt P08908)
Sequence (P08908 1-422): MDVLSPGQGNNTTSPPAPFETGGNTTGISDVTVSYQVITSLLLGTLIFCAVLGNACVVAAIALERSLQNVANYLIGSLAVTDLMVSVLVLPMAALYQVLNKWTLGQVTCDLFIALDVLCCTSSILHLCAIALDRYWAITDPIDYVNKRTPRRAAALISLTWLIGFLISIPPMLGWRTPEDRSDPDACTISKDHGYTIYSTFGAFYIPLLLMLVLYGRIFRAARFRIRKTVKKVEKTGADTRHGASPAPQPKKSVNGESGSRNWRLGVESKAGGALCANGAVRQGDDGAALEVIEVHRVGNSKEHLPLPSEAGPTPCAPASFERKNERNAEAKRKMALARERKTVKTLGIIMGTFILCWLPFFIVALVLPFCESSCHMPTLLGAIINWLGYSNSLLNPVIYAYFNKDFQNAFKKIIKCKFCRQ
Method notes: 5-HT1A receptor affinity: displacement of [3H] 8-OH-DPAT
Type: binding
Design: expressed in transfected cells
Conditions: displacement of [3H] 8-OH-DPAT; CHO cells stably transfected with human 5-HT1A receptors; read-out: 5-HT1A Receptor Affinity Ki
List of pKi values.
To interpret pKi, take it as minus log10 of a concentration measured in moles per litre.

CC(CCc1c[nH]c2ccc(F)cc12)N(CC1CC1)C1COc2c(F)ccc(C(N)=O)c2C1 (single isomer, unassigned; (-)) [Compound 15a]
8.73
CCCN(CCCc1c[nH]c2ccc(F)cc12)[C@H]1COc2c(F)ccc(OC)c2C1
7.96
COc1cccc2c(CCCNC3COc4c(F)ccc(C(N)=O)c4C3)coc12 (stereo not shown)
7.36

### Prompt Find the recorded pKi belonging to CC(CCc1c[nH]c2c(F)cc(F)cc12)N(CC1CC1)C1COc2c(F)ccc(C(N)=O)c2C1 (single isomer, unassigned) [Compound 154b] and report it.
### Response 7.05

### Prompt Next entry: CCCN(CCCc1c[nH]c2ccc(F)cc12)C1COc2c(F)ccc(C(=O)NC)c2C1 (stereo not shown)
### Response 9.09

### Prompt Next entry: NC(=O)c1ccc(F)c2c1CC(N(CCCc1c[nH]c3c(Cl)cccc13)CC1CC1)CO2 (stereo not shown)
### Response 9.13

----------
System tested: cloned human 5-HT1A receptors (Homo sapiens, UniProt P08908)
Construct: expressed in transfected cells
Method notes: 35S-GTPγS binding assay, 5-HT1A function
Assay type: biochemical
Conditions: maximum stimulatory effect, in brackets after EC50; read-out: 5-HT1A Function GTPγS (Emax)
Assay endpoint: Emax (%)
Response body: numeric value in %, unit text excluded.

Below, each entry is followed by its recorded Emax result.
NC(=O)c1ccc(F)c2c1OCC(NCCCc1c[nH]c3c(F)cc(F)cc13)C2 (stereo not drawn) [Compound 128]
59
COC(=O)c1ccc(F)c2c1C[C@@H](NCCCCc1c[nH]c3ccc(F)cc13)CO2 [Compound 57b]
100
COc1cccc2c1CC(N(C)CCCc1c[nH]c3ccc(F)cc13)CO2 (stereo not drawn) [Compound 33]
69
CC(CCc1c[nH]c2ccc(F)cc12)N(CC1CC1)C1COc2c(F)ccc(C(N)=O)c2C1 (single isomer, unassigned; (+)) [Compound 15b]
32
CCCN(CCCc1c[nH]c2ccc(F)cc12)C1COc2cccc(C(N)=O)c2C1 (stereo not drawn) [Compound 150]
74

### Prompt Find the recorded Emax belonging to CCN(CCCc1coc2c(OC)cccc12)C1COc2c(F)ccc(C(N)=O)c2C1 (stereo not drawn) [Compound 162] and report it.
### Response 87

### Prompt Next entry: NC(=O)c1ccc(F)c2c1CC(NCCCc1c[nH]c3ccc(F)cc13)CO2 (stereo not drawn) [Compound 1]
### Response 100

### Prompt Next entry: COc1cccc2c1CC(N(CCCc1c[nH]c3ccc(C#N)cc13)C1CCC1)CO2 (stereo not drawn) [Compound 46]
### Response 36

### Prompt Next entry: CCN(CCc1coc2c(OC)cccc12)C1COc2c(F)ccc(C(N)=O)c2C1 (stereo not drawn) [Compound 157]
### Response 70

### Prompt Next entry: CCCN(CCCc1c[nH]c2ccc(F)cc12)C1COc2c(F)ccc(C(N)=O)c2C1 (single isomer, unassigned; (+)) [Compound 2b]
### Response 80

### Prompt Next entry: CCN(CCCc1c[nH]c2ccc(F)cc12)C1COc2cccc(OC)c2C1 (stereo not drawn) [Compound 31]
### Response 99

### Prompt Next entry: O=C(NCC1CC1)c1cccc2c1CC(N(CCCc1c[nH]c3c(F)cc(F)cc13)C1CCC1)CO2 (stereo not drawn) [Compound 144]
### Response 73

### Prompt Next entry: CCCN(C1COc2cccc(OC)c2C1)[C@H]1CC[C@@H](c2c[nH]c3ccc(F)cc32)CC1 (relative stereo) [Compound 182]
### Response 64.5

----------
List of IC50 values.
System tested: cloned human 5-HT1A receptors (Homo sapiens, UniProt P08908)
Construct: expressed in transfected cells
Method notes: 35S-GTPγS binding assay, 5-HT1A function
Format: biochemical
Conditions: antagonist potency, reversal of 8-OH-DPAT; read-out: 5-HT1A Function GTPγS IC50
Response body: numeric value in nM, unit text excluded.

Below, each entry is followed by its recorded IC50 result.
COc1cccc2c(CCCNC3COc4c(F)ccc(C(N)=O)c4C3)coc12 (stereo not drawn)
3000
NC(=O)c1ccc(F)c2c1C[C@H](N(CCCCc1c[nH]c3ccc(F)cc13)C1CCC1)CO2 [Compound 83b]
2500
NC(=O)c1ccc(F)c2c1CC(N(CCCc1c[nH]c3c(Cl)cccc13)CC1CC1)CO2 (stereo not drawn)
241

### Prompt Find the recorded IC50 belonging to CC(Cc1c[nH]c2ccc(F)cc12)CN(CC1CC1)[C@H]1COc2c(F)ccc(C(N)=O)c2C1 (single isomer, unassigned) [Compound 155a] and report it.
### Response 151

### Prompt Next entry: CCCNC(=O)c1ccc(F)c2c1CC(N(CCCc1c[nH]c3ccc(F)cc13)C1CCC1)CO2 (stereo not drawn)
### Response 800

### Prompt Next entry: O=C(NC1CC1)c1ccc(F)c2c1CC(N(CCCc1c[nH]c3ccc(F)cc13)C1CCC1)CO2 (stereo not drawn)
### Response 395

### Prompt Next entry: CC(CCc1c[nH]c2ccc(F)cc12)N(CC1CC1)C1COc2c(F)ccc(C(N)=O)c2C1 (single isomer, unassigned; (-)) [Compound 15a]
### Response 333

### Prompt Next entry: COc1cccc2c(CCCCNC3COc4c(F)ccc(C(N)=O)c4C3)coc12 (stereo not drawn)
### Response 1820

### Prompt Next entry: COc1cccc2c1CC(N(CCCc1c[nH]c3ccccc13)C1CCC1)CO2 (stereo not drawn)
### Response 242

----------
System tested: 5-HT1A receptor (Homo sapiens)
Method notes: 5-HT1A receptor affinity: displacement of [3H] 8-OH-DPAT
Type: binding
Design: expressed in transfected cells
Conditions: displacement of [3H] 8-OH-DPAT; CHO cells stably transfected with human 5-HT1A receptors; read-out: 5-HT1A Receptor Affinity Ki
Assay endpoint: Ki (nM)
Response body: numeric value in nM, unit text excluded.

### Prompt Find the recorded Ki belonging to COc1cccc2c(CCCN(C3CCC3)C3COc4c(F)ccc(C(N)=O)c4C3)coc12 (stereo not drawn) and report it.
### Response 11.9

### Prompt Next entry: CC(C)CN(CCCc1c[nH]c2ccc(F)cc12)C1COc2cccc(C(N)=O)c2C1 (stereo not drawn)
### Response 102

### Prompt Next entry: N#Cc1ccc2[nH]cc(CCCN(C3CCC3)[C@H]3COc4c(F)ccc(C(N)=O)c4C3)c2c1 [Compound 97b]
### Response 1.98

### Prompt Next entry: CCCN(CCCc1c[nH]c2ccccc12)C1CCc2cccc(OC)c2C1 (stereo not drawn)
### Response 2.13

### Prompt Next entry: NC(=O)c1ccc(F)c2c1CC(N(CCCCn1ccc3c(F)cccc31)C1CCC1)CO2 (stereo not drawn)
### Response 17.4

### Prompt Next entry: CC(C)NC(=O)c1ccc(F)c2c1CC(N(CCCc1c[nH]c3ccc(F)cc13)C1CCC1)CO2 (stereo not drawn)
### Response 46.1

### Prompt Next entry: O=C(NC1CC1)c1cccc2c1CC(N(CCCc1c[nH]c3c(F)cc(F)cc13)C1CCC1)CO2 (stereo not drawn)
### Response 4.03

### Prompt Next entry: CC(C)NC(=O)c1cccc2c1CC(N(CCCc1c[nH]c3c(F)cc(F)cc13)C1CCC1)CO2 (stereo not drawn)
### Response 7.69

### Prompt Next entry: O=C(NCC1CC1)c1cccc2c1CC(N(CCCc1c[nH]c3c(F)cc(F)cc13)C1CCC1)CO2 (stereo not drawn)
### Response 169

### Prompt Next entry: CCN(CCCc1c[nH]c2c(F)cc(F)cc12)C1COc2c(C(N)=O)ccc(F)c2C1 (stereo not drawn)
### Response 95.6

### Prompt Next entry: CCCN(CCCc1c[nH]c2ccc(F)cc12)C1COc2c(F)ccc(C(N)=O)c2C1 (single isomer, unassigned; (+)) [Compound 2b]
### Response 2.21

### Prompt Next entry: COc1cccc2c1CC(N(CCCc1c[nH]c3ccc(F)cc13)C(C)C)CO2 (stereo not drawn)
### Response 80.8

### Prompt Next entry: CC(Cc1c[nH]c2ccc(F)cc12)CN(CC1CC1)[C@H]1COc2c(F)ccc(C(N)=O)c2C1 (single isomer, unassigned) [Compound 155a]
### Response 4.16

### Prompt Next entry: O=C(NC1CCC1)c1ccc(F)c2c1CC(N(CCCc1c[nH]c3ccc(F)cc13)C1CCC1)CO2 (stereo not drawn)
### Response 214

### Prompt Next entry: CCN(C(C)CCc1c[nH]c2ccc(F)cc12)C1COc2c(F)ccc(C(N)=O)c2C1 (single isomer, unassigned; (-)) [Compound 16a]
### Response 37.3

### Prompt Next entry: CCCN(CCCc1c[nH]c2c(F)cc(F)cc12)C1COc2c(C(N)=O)ccc(F)c2C1 (stereo not drawn)
### Response 170

### Prompt Next entry: CNC(=O)c1ccc(F)c2c1CC(N(CCCCc1c[nH]c3ccc(F)cc13)CC1CC1)CO2 (stereo not drawn)
### Response 1.66

### Prompt Next entry: C[C@H](CCN(C1CCC1)[C@@H]1COc2c(F)ccc(C(N)=O)c2C1)c1c[nH]c2ccc(F)cc12 [Compound 152b]
### Response 322

Measured values drawn from patent US20050032873A1 for this set.
